System: Fibroblast
Test: Multiplex assay against human fibroblast
Format: toxicity, cell-based
Conditions: 24 h, 1 µM, compound concentration 1 uM, replicate 2
Outcome: true (1) for Population Hoechst High Intensity Objects (%) of at least 20%; false (0) for anything lower.

{"Compound": "CNC(=O)Nc1ccc(-c2nc(N3CC4CCC(C3)O4)c3cnn(C4CCC5(CC4)OCCO5)c3n2)cc1", "Category": "false (0)"}
{"Compound": "Cc1ccccc1C(c1ccccc1C)N1C2CCC1CC(O)(c1ccccc1)C2 (stereo not given)", "Category": "false (0)"}
{"Compound": "COc1cc2ncn(-c3cc(OCc4ccccc4C(F)(F)F)c(C(N)=O)s3)c2cc1OC [GW843682X]", "Category": "false (0)"}

Is Population Hoechst High Intensity Objects (%) for `Cc1ccc(C)c(Oc2ccncc2C(=O)N2CCN(C3CC3)c3ccccc32)c1` at or above 20%?
false (0)

Is Population Hoechst High Intensity Objects (%) for `Cc1nc(N2CC[C@H](O)C2)ncc1-c1cc(C(F)(F)F)cc2[nH]ncc12` at or above 20%?
true (1)

====

Tested on: HEK-293T
Assay: Multiplex assay against HEK293T
Assay type: toxicity, cell-based
Conditions: human, 12 h, 1 µM, compound concentration 1 uM, replicate 2
Population Healthy Nuclei (%) less than 60% is t; Population Healthy Nuclei (%) greater than or equal to 60% is f.

{"Compound": "COc1cc2ncn(-c3cc(OCc4ccccc4C(F)(F)F)c(C(N)=O)s3)c2cc1OC [GW843682X]", "Category": "t"}

Field: below-cutoff. Rule: recorded Population Healthy Nuclei (%) strictly less than 60%. Subject: Cc1cccc(CN2CCN(C(c3ccccc3)c3ccc(Cl)cc3)CC2)c1.Cl.Cl (stereo not given)
t

Field: below-cutoff. Rule: recorded Population Healthy Nuclei (%) strictly less than 60%. Subject: `C=CC(=O)Nc1cccc(Sc2nc(Nc3ccc(N4CCN(C)CC4)cc3)ncc2Cl)c1`
f

Field: below-cutoff. Rule: recorded Population Healthy Nuclei (%) strictly less than 60%. Subject: `CCOC(=O)Nc1cc(-c2ccc(C)c(NS(C)(=O)=O)c2)nn2c(C)nnc12`
f

Field: below-cutoff. Rule: recorded Population Healthy Nuclei (%) strictly less than 60%. Subject: `CN1CCN(Cc2ccc(Nc3ncc(Cl)c(Nc4ccccc4S(=O)(=O)N(C)C)n3)cc2)CC1`
t

====

Tested on: Fibroblast
Test: Multiplex assay against human fibroblast
Type: toxicity, cell-based
Conditions: 48 h, 1 µM, compound concentration 1 uM, replicate 2
Population Mitochondria Different-Phenotype (%) less than 6% is Fulfilled; Population Mitochondria Different-Phenotype (%) greater than or equal to 6% is Not fulfilled.

Example results:
{"Compound": "COC(=O)C1=C(C)NC(C)=C(C(=O)OCCCN2CCC(c3ccccc3)(c3ccccc3)CC2)[C@H]1c1cccc([N+](=O)[O-])c1 [NIGULDIPINE]", "Category": "Not fulfilled"}
{"Compound": "O=c1cc(N2CCOCC2)oc2c(-c3cccc4c3sc3ccccc34)cccc12", "Category": "Fulfilled"}
{"Compound": "CC(C)Oc1ccccc1C(=O)Nc1ccccc1C(=O)Nc1cccc(S(=O)(=O)C(F)(F)F)c1", "Category": "Fulfilled"}
{"Compound": "COc1cc2ncn(-c3cc(OCc4ccccc4C(F)(F)F)c(C(N)=O)s3)c2cc1OC [GW843682X]", "Category": "Fulfilled"}
{"Compound": "COc1ccccc1CN[C@H]1C2CCN(CC2)[C@H]1C(c1ccccc1)c1ccccc1 [CP-96345]", "Category": "Fulfilled"}
{"Compound": "CCc1nn(CCCN2CCN(c3cccc(Cl)c3)CC2)c(=O)n1CCOc1ccccc1.Cl [NEFAZODONE HYDROCHLORIDE]", "Category": "Not fulfilled"}
{"Compound": "Cc1cccc(CN2CCN(C(c3ccccc3)c3ccc(Cl)cc3)CC2)c1.Cl.Cl (configuration not stated)", "Category": "Not fulfilled"}
{"Compound": "CC1=C(C(=O)Nc2cc3cn[nH]c3cc2F)C(c2ccc(C(F)(F)F)cc2)CC(=O)N1 (configuration not stated)", "Category": "Fulfilled"}
{"Compound": "CN1CCN(Cc2ccc(Nc3ncc(Cl)c(Nc4ccccc4S(=O)(=O)N(C)C)n3)cc2)CC1 [DUBERMATINIB]", "Category": "Fulfilled"}
{"Compound": "COc1ccc(-c2ccc3ncc4c(c3c2)n(-c2ccc(N3CCNCC3)c(C(F)(F)F)c2)c(=O)n4C)cn1.O=C(O)/C=C\\C(=O)O [BGT-226]", "Category": "Not fulfilled"}

Continue with the compound presented below.
Field: below-cutoff. Rule: recorded Population Mitochondria Different-Phenotype (%) strictly less than 6%. Subject: CCCSc1nc(N[C@@H]2C[C@H]2c2ccc(F)c(F)c2)c2nnn([C@@H]3C[C@H](OCCO)[C@@H](O)[C@H]3O)c2n1 [TICAGRELOR]
Fulfilled
